Test system: M14 melanoma
Assay: NCI tumour cell line growth inhibition, 48 h
Give TGI for every item shown.

I have this compound here, CC1=NN(C(=O)CC(=O)Nc2ccccc2Cl)C(=O)C1N=Nc1ccc(S(=O)(=O)c2ccc(N=NC3C(=O)N(C(=O)CC(=O)Nc4ccccc4Cl)N=C3C)cc2)cc1 (stereo not drawn) , and I need its recorded TGI.
> 100 µM

Item: `COc1cc([C@@H]2c3cc4c(cc3[C@@H](Nc3ccccc3C(=O)c3ccccc3)[C@H]3COC(=O)[C@H]23)OCO4)cc(OC)c1OC`
> 53.7 µM

// same read-out, input: `COc1ccc(NC(=O)CC(=O)n2nc(C)c(N=Nc3cccc(C)c3)c2C)cc1`
> 100 µM

Now consider CCOC(=O)c1c(-c2ccc(Cl)cc2)c(C#N)c(=S)n(C2OC(COC(C)=O)C(OC(C)=O)C(OC(C)=O)C2OC(C)=O)c1-c1ccccc1 (stereo not drawn) .
> 100 µM

And what about the compound CCOC(=O)C(CC(C)C)NC(=O)CSc1nnc(COc2ccc(Cl)cc2)n1-c1ccccc1 (stereo not drawn) ?
31.9 µM

Do the same for `Cc1ccc(-c2c3c(nn2-c2ccc(S(N)(=O)=O)cc2)-c2ccccc2C3)cc1` please
37.6 µM

For `CN=C(NC(=S)N(C)C)N(C)C` then?
> 100 µM

Then this compound: Cc1ccc(NC(=O)C(Cc2c[nH]c3ccccc23)NC(=O)Oc2ccccc2)cc1C (stereo not drawn)
> 100 µM

* * *

Test system: UACC-257 melanoma
Experiment: NCI tumour cell line growth inhibition, 48 h
Exercise: for every item that follows, state its recorded TGI.

May I ask what TGI has been recorded for COC(=O)CCC1CCc2c(OC)ccc(OC)c2C1=O (centres undefined) ?
> 100 µM

Same thing, different compound: O=C1C2=C(c3ccccc31)C(c1ccccc1)N1C(=O)CSC1=N2 (centres undefined)
> 100 µM

Next up: CCCCCCCC(CC(=O)NC(CO)C(=O)NC(CO)CC(C)C)OC(=O)CC(CCCCCCC)OC(=O)CC(CCCCCCC)OC1OC(C)C(O)C(OC2OC(C)C(O)C(O)C2OC(C)=O)C1O (centres undefined)
13.5 µM

Also `CCCCCCCCCCCCc1ccc(S(=O)(=O)O)cc1.[Zn+2]` ?
> 100 µM

* * *

Test system: SNB-75 CNS
Experiment: NCI tumour cell line growth inhibition, 48 h
REPORTED ENDPOINT: TGI (µM)
Number in µM, nothing else.

Quick one: TGI of COc1cc(C2c3cc4c(cc3OC(Nc3ccccc3)C2C)OCO4)cc(OC)c1O (centres undefined) ?
7.35

Same again, this time with CCCCCCCC(CC(=O)NC(CO)C(=O)NC(CO)CC(C)C)OC(=O)CC(CCCCCCC)OC(=O)CC(CCCCCCC)OC1OC(C)C(O)C(OC2OC(C)C(O)C(O)C2OC(C)=O)C1O (centres undefined)
17.6

CCCCCc1cc2cc3c(c(O)c2c(=O)[nH]1)C1(CCC3)C(O)=c2c(=O)c3c(=O)cc(OC)c(=O)c=3c(=O)c2=C1O (centres undefined) ?
3.67

Similarly, `Cn1nc(-c2ccc(Cl)cc2)nc2c(=O)n(C)c(=O)nc1-2` ?
4.68

Now consider `FC(F)(F)c1ccc(-c2cnc(-n3cc(COCCN4CCCCC4)nn3)nc2NC2CCCCCC2)cc1` and answer again.
6.4

Now this one: `O=C1c2ccccc2C(=O)c2sc(Nc3ccccc3C(F)(F)F)nc21`
35.8

Quick one: COc1cccc(-c2ccc3c(c2)C2CCN(Cc4ccccc4)C3C2)c1 (centres undefined)
27.2

Next: `COc1ccc(S(=O)(=O)NC2=NCCN2C(=S)SN2CCn3c2nsc3=S)cc1`
42.5

Also check COc1cccc(/C=N/NC(=S)NC2CC3CCC2C3)c1O (centres undefined)
5.47
